test: growth suppression of yeast trafficking mutant, preliminary HTS, modulators of trafficking downstream of Golgi apparatus project, 1536-format plate, OD 615 nm (AID 637); conditions: yeast transport mutant growth, absorbance 615 nm, 18 h; active compounds read high; further: test concentration not given here
For each record, write down the corresponding inhibition.
Report as a plain number; the unit % is understood.

Summary for this compound, Cc1cc(C)c(OCC(=O)Nc2ccc3c(c2)OCO3)cc1C : inhibition is -11.4

// COc1ccc(OC)c(Nc2cc(-c3ccccc3)nc(N)n2)c1 : inhibition value = -5.09

Short answer for CCOC(=O)N1CCC(N2C(=O)c3ccc(C(=O)NCc4ccco4)cc3C2=O)CC1 : inhibition was -0.17

So for N#Cc1ccccc1NC(=O)CSc1nnc(-c2ccccc2)n1-c1ccccc1 , the logged inhibition turned out to be -0.32

Lab note: CCCNS(=O)(=O)c1ccc(OCC(=O)NCc2ccc3c(c2)OCO3)cc1 gave inhibition of 11

# inhibition of Cc1cc(Cl)ccc1OCCCC(=O)NO = 3.83

O=C(NCCC1=CCCCC1)C1CCN(S(=O)(=O)c2cccc3nsnc23)CC1 yielded inhibition of 0.98

get_value(item= CCN(CC)CCCNC(=O)c1nn(-c2ccc(OC)cc2OC)c(=O)c2ccccc12 , readout=inhibition) returns -7.46

O=C(C1CCCN(S(=O)(=O)c2ccc(Br)s2)C1)N1CCCCCC1 (stereo unspecified) yielded inhibition of -3.5

get_value(item= COC(=O)c1cc(=O)nc2sc(-c3cccs3)nn12 , readout=inhibition) returns 5.24

Item: O=C(CS(=O)(=O)Cc1ccccc1)N1CCc2ccccc2C1 | inhibition: -1.61

Lab book: inhibition of CCOC(=O)C1CCCN(c2c(NCc3ccco3)c(=O)c2=O)C1 (stereo unspecified) noted as -6.07

Per the record, CCc1ccc(CNCc2cccnc2)cc1 has inhibition of -2

In plain terms, C=CCOC(=O)C1=C(C)OC(N)=C(C#N)C1c1ccc2c(c1)OCO2 (stereo unspecified) has a documented inhibition of -4.44

Input O=C(CSc1nnc(CNC(=O)c2cccs2)o1)NCCc1ccccc1 . Output inhibition: -3

Field inhibition (entry COc1ccc(-c2ccc(CCC(=O)O)n2NC(=O)c2cccs2)cc1 ) reads 2.06

GET /value?item= O=C1c2ccccc2C(=O)N1Cc1nc2ccccc2c(=O)n1CCN1CCOCC1 &field=inhibition returns -4

Value of measured inhibition for the entry Cc1ccc(SCc2[nH]nc3c2C(c2ccc(C)o2)C(C#N)=C(N)O3)cc1 (stereo unspecified) : 2.06

So, CC(=O)Nc1ccc(S(=O)(=O)NCc2cn3c(C)csc3n2)cc1 ? Its inhibition was -3.02

The recorded inhibition for CC(=O)N1C(=O)C2(C(C#N)=C(N)Oc3cc(C)oc(=O)c32)c2ccccc21 (stereo unspecified) is -2.91

So, Cc1cccc(OCC(=O)N(Cc2cccs2)C2CCS(=O)(=O)C2)c1C (stereo unspecified) ? Its inhibition was 3.02

Lab note: measured inhibition of O=C(NC1CCCCC1)c1ccc(S(=O)(=O)N2CCCCC2)cc1 was -11.4

// recorded inhibition for COc1ccc(C)cc1NC(=O)COCC(=O)O : -3.49

According to the records, this compound O=c1ccc2cc3c([nH]c4ccc(Br)cc43)oc-2c1O displays inhibition of -3.81

So, CCOC(=O)c1[nH]c(C)c(C(=O)N2CCN(c3ccc(F)cc3)CC2)c1C ? Its inhibition was -4.44

The reported inhibition of the compound Cc1csc2ncc(C(=O)N3CCc4ccccc43)c(=O)n12 was 4

inhibition for CCCOC(=O)CSc1nc(N)c(C#N)c(CC)c1C#N is 0.16

inhibition in this record for CC(=O)C1=C(O)C(=O)N(Cc2cccnc2)C1c1ccccc1 (stereo unspecified) : -1.77

Noted for O=C(Nc1ccccc1)N(O)c1ccc(Cl)cc1 : its inhibition reads -4.5

Notebook: CCCOc1ccc(/C(O)=C2/C(=O)C(=O)N(CCCOC)C2c2ccncc2)cc1 (stereo unspecified) , inhibition read as 3.67

GET /value?item= CN(C)c1ccc(CNCCC2(O)CCOC(C)(C)C2)cc1 (stereo unspecified) &field=inhibition returns 1.64

Looking up CCCOc1ccc(N2C(=O)C3ON(c4ccccc4)C(c4ccc(O)c(OC)c4)C3C2=O)cc1 (stereo unspecified) , I see its inhibition listed as 3.55

Record CCOC(=O)C1CCN(c2c(N(C)Cc3ccco3)c(=O)c2=O)CC1 . Reported inhibition: -5.5

Lookup result for O=C(CN(C(=O)CCC(=O)Nc1nccs1)c1ccccc1F)NCC1CCCO1 (stereo unspecified) ; measured inhibition: 13.1

Record summary for Cc1ccc(Cn2c(SCCN3CCCCC3)nc3c2c(=O)[nH]c(=O)n3C)cc1 : reported inhibition = -6.83

Lab note: measured inhibition of COC(=O)c1sc2ccccc2c1NC(=O)c1cccs1 was -5.87

Quick note, inhibition for CCOC(=O)C1C2C=CC3(CN(c4cccc(Cl)c4)C(=O)C13)O2 (stereo unspecified) landed at 0.17

Entry O=C(Nc1cccc2ccccc12)c1cnccn1 — recorded inhibition = -1.59

# compound CC1CCCC(NC(=O)CSc2ncccc2C(=O)O)C1C (stereo unspecified) ; its inhibition = -4.36

COc1cccc(OCC(O)CN2CCN(CCO)CC2)c1 (stereo unspecified) yielded inhibition of 6.39

// inhibition value for CC1CCN(C(=O)CSc2nnc(-c3ccc(S(=O)(=O)N4CCOCC4)cc3)n2C)CC1 : -2.62

For this compound ( Cc1cc(=O)oc2cc(OCC(=O)OCc3nnc(-c4ccccc4)o3)ccc12 ), measured inhibition is -0.16

Per the record, COc1cccc(NC(=O)COc2ccccc2C(N)=O)c1 has inhibition of -7.9

// inhibition value for CCC(C)Nc1nc2c(c(=O)n(C)c(=O)n2C)n1Cc1ccc(F)cc1 (stereo unspecified) : 5.08

Briefly, inhibition measured for CC(NO)C(C)(C)NO (stereo unspecified) : 12.1

Input CCCCSCCCNC(=O)CS(=O)Cc1nc(-c2cccc(C)c2)oc1C (stereo unspecified) . Output inhibition: -1
